Reported AC50 is given for each of the following compounds.
Target: Prostaglandin G/H synthase 1 (Homo sapiens); further: assay procedure not described here
Sequence (P23219 whole entry): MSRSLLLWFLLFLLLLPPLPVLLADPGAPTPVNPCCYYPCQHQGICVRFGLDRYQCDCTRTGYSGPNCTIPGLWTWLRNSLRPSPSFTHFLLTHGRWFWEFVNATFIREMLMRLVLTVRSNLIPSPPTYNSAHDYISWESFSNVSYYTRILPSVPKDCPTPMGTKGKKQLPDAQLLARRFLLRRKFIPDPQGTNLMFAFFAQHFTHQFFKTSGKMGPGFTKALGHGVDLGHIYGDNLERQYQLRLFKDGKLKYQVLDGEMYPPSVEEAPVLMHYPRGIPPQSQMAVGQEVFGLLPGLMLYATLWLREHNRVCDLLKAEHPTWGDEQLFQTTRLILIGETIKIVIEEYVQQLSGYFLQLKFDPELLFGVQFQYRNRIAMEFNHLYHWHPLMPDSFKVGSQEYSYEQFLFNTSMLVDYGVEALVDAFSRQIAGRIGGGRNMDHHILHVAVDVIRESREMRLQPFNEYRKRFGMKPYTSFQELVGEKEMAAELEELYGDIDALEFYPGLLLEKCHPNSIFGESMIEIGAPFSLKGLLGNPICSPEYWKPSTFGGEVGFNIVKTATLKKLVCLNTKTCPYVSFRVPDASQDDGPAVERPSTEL
Type: functional

Sample answers from the record:
>  <compound>
CC1(C)O[C@@H]2C[C@H]3[C@@H]4CCC5=CC(=O)CC[C@]5(C)[C@@]4(F)[C@@H](O)C[C@]3(C)[C@]2(C(=O)CCl)O1 [HALCINONIDE]

>  <AC50>
> 30 µM

$$$$
>  <compound>
O=C(O)c1cc(=O)c2ccccc2o1

>  <AC50>
23.9 µM

$$$$
>  <compound>
CN1CCC[C@@H]1Cc1c[nH]c2ccc(CCS(=O)(=O)c3ccccc3)cc12

>  <AC50>
> 30 µM

$$$$
>  <compound>
CN(C)C(=O)c1nc(CNC(=O)CN)n(-c2ccc(Cl)cc2C(=O)c2ccccc2Cl)n1

>  <AC50>
13.5 µM

$$$$
>  <compound>
N[C@@H](Cc1c[nH]c2ccc(O)cc12)C(=O)O

>  <AC50>
> 3 µM

$$$$

Query string: Query the reported AC50 for Prostaglandin G/H synthase 1 (Homo sapiens); item: CCC(=O)O[C@]1(C(=O)COC(C)=O)CC[C@H]2[C@@H]3CCC4=CC(=O)CC[C@]4(C)[C@H]3[C@@H](O)C[C@@]21C [HYDROCORTISONE ACEPONATE]
Result string: > 30 µM

Query string: Query the reported AC50 for Prostaglandin G/H synthase 1 (Homo sapiens); item: O=[N+]([O-])O[C@H]1CO[C@H]2[C@@H]1OC[C@H]2O[N+](=O)[O-] [ISOSORBIDE DINITRATE]
Result string: > 30 µM

Query string: Query the reported AC50 for Prostaglandin G/H synthase 1 (Homo sapiens); item: Cc1cc2c(OCC(O)CNC(C)C)cccc2[nH]1 (stereo not given) [MEPINDOLOL]
Result string: 15.2 µM

Query string: Query the reported AC50 for Prostaglandin G/H synthase 1 (Homo sapiens); item: CCC[C@@H]1C[C@@H](C(=O)N[C@@H]([C@H]2O[C@H](SC)[C@H](OP(=O)(O)O)[C@@H](O)[C@H]2O)[C@H](C)Cl)N(C)C1 [CLINDAMYCIN PHOSPHATE]
Result string: > 30 µM

Query string: Query the reported AC50 for Prostaglandin G/H synthase 1 (Homo sapiens); item: CCCCCCCCCCCCCCCC(=O)OC/C=C(C)/C=C/C=C(C)/C=C/C1=C(C)CCCC1(C)C [VITAMIN A PALMITATE]
Result string: > 30 µM

----------
This document collects AC50 values reported for Androgen receptor (Homo sapiens, UniProt P10275).

Sample answers from the record:
>  <compound>
CCOC(=O)[C@H](CCc1ccccc1)N[C@H]1CS[C@H](c2cccs2)CN(CC(=O)O)C1=O [TEMOCAPRIL]

>  <AC50>
> 30 µM

$$$$
>  <compound>
CN(CC(=O)O)C(=N)N [CREATINE]

>  <AC50>
> 30 µM

$$$$
>  <compound>
C[C@H](N)C(=O)O [ALANINE]

>  <AC50>
> 30 µM

$$$$
>  <compound>
C[C@@H](O)[C@H]1C(=O)N2C(C(=O)O)=C([C@H]3CCCO3)S[C@H]12 [FAROPENEM]

>  <AC50>
> 30 µM

$$$$
>  <compound>
Cc1nnc(SCC2=C(C(=O)O)N3C(=O)[C@@H](NC(=O)Cn4cc(Cl)c(=O)c(Cl)c4)[C@H]3SC2)s1 [CEFAZEDONE]

>  <AC50>
> 30 µM

$$$$
>  <compound>
OC(CCCN1CCCCC1)(c1ccccc1)c1ccccc1 [DIPHENIDOL]

>  <AC50>
> 30 µM

$$$$
>  <compound>
O=C(Nc1nc(-c2cc(Cl)cs2)c(N2CCN(C3CCCCC3)CC2)s1)c1cnc(N2CCC(C(=O)O)CC2)c(Cl)c1 [AVATROMBOPAG]

>  <AC50>
> 30 µM

$$$$
>  <compound>
Cc1ccc([C@@H]2O[C@H](CO)[C@@H](O)[C@H](O)[C@H]2O)cc1Cc1ccc(-c2ccc(F)cc2)s1 [CANAGLIFLOZIN ANHYDROUS]

>  <AC50>
> 30 µM

$$$$
>  <compound>
CN(C)C(=O)c1nc(CNC(=O)CN)n(-c2ccc(Cl)cc2C(=O)c2ccccc2Cl)n1 [RILMAZAFONE]

>  <AC50>
> 30 µM

$$$$
>  <compound>
CCCCCCCCCCCCCCCCCC(=O)NCCCC[C@H](NC(=O)CC[C@@H](NC(=O)[C@H](C)NC(=O)[C@@H](C)O[C@H]1[C@H](O)[C@@H](CO)OC(O)[C@@H]1NC(C)=O)C(N)=O)C(=O)O (some centres not stated) [ROMURTIDE]

>  <AC50>
5.69 µM

$$$$

Query string: Query the reported AC50 for Androgen receptor (Homo sapiens, UniProt P10275); item: CC(C)[N+](C)(CCOC(=O)C1c2ccccc2Oc2ccccc21)C(C)C [PROPANTHELINE]
Result string: > 30 µM

Query string: Query the reported AC50 for Androgen receptor (Homo sapiens, UniProt P10275); item: O=C(O)COc1nn(Cc2ccccc2)c2ccccc12 [BENDAZAC]
Result string: > 30 µM

Query string: Query the reported AC50 for Androgen receptor (Homo sapiens, UniProt P10275); item: COC(=O)C1=C(C)NC(C)=C(C(=O)O[C@H]2CCN(Cc3ccccc3)C2)[C@H]1c1cccc([N+](=O)[O-])c1 [BARNIDIPINE]
Result string: > 30 µM

Query string: Query the reported AC50 for Androgen receptor (Homo sapiens, UniProt P10275); item: CCCCCCCC(=O)N[C@H](CN1CCCC1)[C@H](O)c1ccc2c(c1)OCCO2
Result string: > 30 µM

Query string: Query the reported AC50 for Androgen receptor (Homo sapiens, UniProt P10275); item: CC(=O)OC(C)OC(=O)C(C)c1ccc(-c2ccccc2)c(F)c1 (configuration not stated)
Result string: > 30 µM

Query string: Query the reported AC50 for Androgen receptor (Homo sapiens, UniProt P10275); item: N[C@@H](CSSC[C@H](N)C(=O)O)C(=O)O [CYSTINE]
Result string: > 30 µM

Query string: Query the reported AC50 for Androgen receptor (Homo sapiens, UniProt P10275); item: CCCCCCCCNC(C)C(O)c1ccc(SC(C)C)cc1 (configuration not stated) [SULOCTIDIL]
Result string: > 30 µM

Query string: Query the reported AC50 for Androgen receptor (Homo sapiens, UniProt P10275); item: CC[N+](C)(CC)CCOC(=O)C1c2ccccc2Oc2ccccc21 [METHANTHELINE]
Result string: > 30 µM

Query string: Query the reported AC50 for Androgen receptor (Homo sapiens, UniProt P10275); item: NC(=O)c1nc(F)c[nH]c1=O
Result string: > 30 µM

Query string: Query the reported AC50 for Androgen receptor (Homo sapiens, UniProt P10275); item: CCC(=O)O[C@]1(C(=O)COC(C)=O)CC[C@H]2[C@@H]3CCC4=CC(=O)CC[C@]4(C)[C@H]3[C@@H](O)C[C@@]21C [HYDROCORTISONE ACEPONATE]
Result string: 0.314 µM

Query string: Query the reported AC50 for Androgen receptor (Homo sapiens, UniProt P10275); item: C[C@]1(COc2ccc(N3CCC(Oc4ccc(OC(F)(F)F)cc4)CC3)cc2)Cn2cc([N+](=O)[O-])nc2O1
Result string: > 30 µM

Query string: Query the reported AC50 for Androgen receptor (Homo sapiens, UniProt P10275); item: Cc1cc(CCN2CCN(c3cccc(Cl)c3)CC2)n[nH]1 [MEPIPRAZOLE]
Result string: > 30 µM

----------
Target: Progesterone receptor (Homo sapiens, UniProt P06401); further: assay procedure not described here
Sequence (P06401 whole entry): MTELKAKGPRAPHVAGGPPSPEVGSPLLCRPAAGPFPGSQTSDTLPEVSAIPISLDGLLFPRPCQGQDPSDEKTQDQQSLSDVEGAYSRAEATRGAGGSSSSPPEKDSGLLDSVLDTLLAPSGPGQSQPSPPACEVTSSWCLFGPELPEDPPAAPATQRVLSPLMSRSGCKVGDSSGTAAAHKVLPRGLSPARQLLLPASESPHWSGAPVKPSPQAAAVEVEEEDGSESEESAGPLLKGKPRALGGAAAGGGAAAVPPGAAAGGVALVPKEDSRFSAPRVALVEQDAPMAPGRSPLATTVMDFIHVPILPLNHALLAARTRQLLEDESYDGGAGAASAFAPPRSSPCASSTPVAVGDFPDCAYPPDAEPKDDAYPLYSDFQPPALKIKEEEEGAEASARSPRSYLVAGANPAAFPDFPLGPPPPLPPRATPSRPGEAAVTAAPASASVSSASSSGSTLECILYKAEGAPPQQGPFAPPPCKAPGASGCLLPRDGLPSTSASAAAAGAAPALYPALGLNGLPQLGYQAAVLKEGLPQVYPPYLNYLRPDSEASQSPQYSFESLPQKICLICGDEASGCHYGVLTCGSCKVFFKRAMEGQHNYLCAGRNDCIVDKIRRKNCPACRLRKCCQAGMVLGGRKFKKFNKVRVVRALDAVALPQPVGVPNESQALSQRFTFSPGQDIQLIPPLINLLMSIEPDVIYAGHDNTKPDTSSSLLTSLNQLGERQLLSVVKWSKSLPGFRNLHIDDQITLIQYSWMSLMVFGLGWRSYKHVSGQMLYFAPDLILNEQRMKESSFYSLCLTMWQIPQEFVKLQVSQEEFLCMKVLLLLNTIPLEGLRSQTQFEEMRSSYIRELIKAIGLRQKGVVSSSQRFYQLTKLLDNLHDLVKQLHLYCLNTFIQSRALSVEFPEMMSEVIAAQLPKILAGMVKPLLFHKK
Format: functional
reported.endpoint: AC50

Sample answers from the record:
>  <molecule>
O=C(CCCN1CCC(n2c(O)nc3ccccc32)CC1)c1ccc(F)cc1 [BENPERIDOL]

>  <target.or.system>
Progesterone receptor (Homo sapiens, UniProt P06401); further: assay procedure not described here

>  <AC50>
> 30 µM

$$$$
>  <molecule>
COC(=O)N[C@@H](C)CNc1nccc(-c2cn(C(C)C)nc2-c2cc(Cl)cc(NS(C)(=O)=O)c2F)n1 [ENCORAFENIB]

>  <target.or.system>
Progesterone receptor (Homo sapiens, UniProt P06401); further: assay procedure not described here

>  <AC50>
> 30 µM

$$$$
>  <molecule>
CCOc1cc(CC(=O)N[C@@H](CC(C)C)c2ccccc2N2CCCCC2)ccc1C(=O)O [REPAGLINIDE]

>  <target.or.system>
Progesterone receptor (Homo sapiens, UniProt P06401); further: assay procedure not described here

>  <AC50>
> 30 µM

$$$$
>  <molecule>
Cc1cc(CC(=O)O)n(C)c1C(=O)c1ccc(Cl)cc1 [ZOMEPIRAC]

>  <target.or.system>
Progesterone receptor (Homo sapiens, UniProt P06401); further: assay procedure not described here

>  <AC50>
> 30 µM

$$$$
>  <molecule>
CC(C)(C)NCC(O)c1cc(Cl)c(N)c(Cl)c1 (stereo not given) [CLENBUTEROL]

>  <target.or.system>
Progesterone receptor (Homo sapiens, UniProt P06401); further: assay procedure not described here

>  <AC50>
> 30 µM

$$$$

Query string: Query the reported AC50 for Progesterone receptor (Homo sapiens, UniProt P06401); item: CC(=O)OCC[N+](C)(C)C [ACETYLCHOLINE]
Result string: 29 µM

Query string: Query the reported AC50 for Progesterone receptor (Homo sapiens, UniProt P06401); item: Nc1nc(F)nc2c1ncn2[C@@H]1O[C@H](COP(=O)(O)O)[C@@H](O)[C@@H]1O [FLUDARABINE PHOSPHATE]
Result string: > 30 µM

Query string: Query the reported AC50 for Progesterone receptor (Homo sapiens, UniProt P06401); item: COc1cccc2c1C(=O)c1c(O)c3c(c(O)c1C2=O)C[C@@](O)(C(C)=O)C[C@@H]3O[C@H]1C[C@H](N)[C@H](O)[C@H](C)O1 [DAUNORUBICIN]
Result string: 7.42 µM

Query string: Query the reported AC50 for Progesterone receptor (Homo sapiens, UniProt P06401); item: O=C1NC(=O)C(c2ccccc2)(c2ccccc2)N1 [PHENYTOIN]
Result string: > 30 µM

Query string: Query the reported AC50 for Progesterone receptor (Homo sapiens, UniProt P06401); item: CC[C@H]1OC(=O)[C@H](C)[C@@H](O[C@H]2C[C@@](C)(OC)[C@@H](O)[C@H](C)O2)[C@H](C)[C@@H](O[C@@H]2O[C@H](C)C[C@H](N(C)C)[C@H]2O)[C@](C)(OC)C[C@@H](C)C(=O)[C@H](C)[C@@H](O)[C@]1(C)O [CLARITHROMYCIN]
Result string: > 30 µM

Query string: Query the reported AC50 for Progesterone receptor (Homo sapiens, UniProt P06401); item: CC[C@H]1OC(=O)[C@H](C)[C@@H](O[C@H]2C[C@@](C)(OC)[C@@H](O)[C@H](C)O2)[C@H](C)[C@@H](O[C@@H]2O[C@H](C)C[C@H](N(C)C)[C@H]2O)[C@](C)(O)C[C@@H](C)/C(=N\OCOCCOC)[C@H](C)[C@@H](O)[C@]1(C)O [ROXITHROMYCIN]
Result string: > 30 µM

Query string: Query the reported AC50 for Progesterone receptor (Homo sapiens, UniProt P06401); item: COc1cc(OC)c(C(=O)CCCN2CCCC2)c(OC)c1 [BUFLOMEDIL]
Result string: > 30 µM

Query string: Query the reported AC50 for Progesterone receptor (Homo sapiens, UniProt P06401); item: CC(=O)Nc1c(I)c(C(=O)N[C@H]2C(O)O[C@H](CO)[C@@H](O)[C@@H]2O)c(I)c(N(C)C(C)=O)c1I (stereo not given in full) [METRIZAMIDE]
Result string: > 10 µM

Query string: Query the reported AC50 for Progesterone receptor (Homo sapiens, UniProt P06401); item: CCN(CC)CCOC(=O)c1ccc(N)cc1Cl [CHLOROPROCAINE]
Result string: > 30 µM

Query string: Query the reported AC50 for Progesterone receptor (Homo sapiens, UniProt P06401); item: CC(=O)c1ccc2c(c1)N(CCCN1CCC(CCO)CC1)c1ccccc1S2 [PIPERACETAZINE]
Result string: > 30 µM
